Test system: A498 renal
ASSAY NOTES: NCI-60 one-dose screen, 48 h
RECORDED CONDITIONS: 10 µM unless noted
The panel holds about 83,000 compounds, 20% with a hit somewhere; the sample as a whole holds those more often. Active and inactive are the calls of the source. The calls were made as follows: active = growth percent below 10; inactive = the rest.
Outcome codes: active, inactive

COMPOUND | ASSIGNED CATEGORY
O=C(CCCC(=O)Nc1ccc(Cn2nnc3cc(Cl)c(Cl)cc32)cc1)Nc1ccc(CN2N=NC3C=C(Cl)C(Cl)=CC32)cc1 (centres undefined) | inactive
CCCCCCCCCCCCOC(=O)/C=C\C(=O)NC(N)=O | inactive
O=C(CCC(=O)N(CCO)CCO)N(CCO)CCO | inactive
Br/C(=N\Nc1nn[nH]n1)c1ccccc1 | inactive
CCCCCCCCC(=O)Nc1ccc(O)cc1 | inactive
COc1ccccc1Nc1nnc(COc2ccc(CNC(=O)CCCC/C=C/C(C)C)cc2OC)o1 | inactive
COc1ccccc1C(=O)Nc1cccc(-c2cc(=O)c3c(OC)c(OC)c(OC)cc3o2)c1 | inactive
CCOc1nc(-c2ccccc2)cc2c(O)c(C(=O)N/N=C/c3ccccc3O)[nH]c(=O)c12 | inactive
COc1ccc(Cn2cc3c(c2-c2ccccc2)CCc2cnoc2-3)cc1OC | inactive
CC(=O)N1CCN(CCNC(=O)n2cc(-c3ccncc3)c(-c3ccc(O)c(Cl)c3)n2)CC1 | inactive
N#Cc1ccc(OCc2nc(N)nc(N)c2-c2ccc(Cl)c(Cl)c2)cc1 | inactive
O=C(/C=C1\C(=O)N(Cc2ccc([N+](=O)[O-])cc2)c2ccccc21)c1ccc(OCCN2CCCC2)cc1 | inactive
O=C(OCC1CC2(Cl)C(Cl)=C(Cl)C1(Cl)C2(Cl)Cl)C1C(C(=O)OCC2CC3(Cl)C(Cl)=C(Cl)C2(Cl)C3(Cl)Cl)C2(Cl)C(Cl)=C(Cl)C1(Cl)C2(Cl)Cl (centres undefined) | inactive
CCCC(C)c1cc(Cc2cc(Cl)cc(Cl)c2O)c(O)c(Cc2cc(Cl)cc(Cl)c2O)c1 (centres undefined) | active
c1ccc(-c2cn3ccnc3c(-c3ccc4ncn(C5CCCCC5)c4c3)n2)cc1 | inactive
CCC(C)(C)c1ccc(OCCCCCCN2CCNCC2)cc1 | inactive
CC(=O)Nc1nc(C)c(C(=O)NNS(=O)(=O)c2ccccc2)s1 | inactive
COC(=O)C(C(=O)OC)C(Br)C(Br)C(Br)c1ccccc1 (centres undefined) | inactive
COc1ccc(Cn2cc3c(c2)-c2oncc2CC3)cc1OC | inactive
CCOC(=O)C1=NN(c2ccccc2)C2=NC(=O)/C(=C\c3cn(-c4ccccc4)nc3-c3cc4ccccc4o3)C(=O)N12 | inactive
CCOc1ccc(N(C)c2ccc(/C=C/C3=[N+](C)c4ccccc4C3(C)C)cc2)cc1 | inactive
N#Cc1c2ncccc2c2nnc3cc(Cl)c(Cl)cc3n12 | inactive
CC(=O)N1CCN(CCNC(=O)n2cc(-c3ccncc3)c(-c3cc(O)cc(Cl)c3)n2)CC1 | inactive
CCC(C)C1NC(=O)C(CCCCN)NC(=O)C(CCCCN)NC(=O)C(CC(C)C)NC(=O)C(CCCCN)NC(=O)C(C(C)CC)NC(=O)C(C(C)C)NC(=O)C(C(C)CC)NC(=O)C(CCCCN)NC(=O)C(CCCCN)NC(=O)C(C)NC(=O)C(CCCCN)NC(=O)C(CC(C)C)NC1=O (centres undefined) | inactive
COc1ccc(OC)c(Cn2cc3c(c2-c2ccccc2)CCc2cnoc2-3)c1 | inactive
CC(C)OC(=O)Nn1cnc2ccccc21 | inactive
O=C1Nc2c(c(=O)n(-c3ccccc3)c3ccccc23)C(c2ccc(Cl)cc2)N1 (centres undefined) | inactive
CCOC(=O)c1sc(NS(=O)(=O)c2ccccc2)nc1C | inactive
CCCCCCCCCCCCCCCCCCOP(=O)(O)O | inactive
CCN(CC)CCOC(=O)c1cccnc1 | inactive
C/C=C(/C)C(=O)OC1C=C(CO)C(=O)C(OC(=O)C(C)(O)C(C)Cl)C1C(C)C (centres undefined) | active
O=C(/C=C\c1ccc(NCc2ccc(C(=O)O)cc2)cc1)CCl | inactive
Cc1ccc(C(=O)Nc2ccc(CN3CCN(C)CC3)c(C(F)(F)F)c2)cc1C#Cc1cncc2ncccc12 | active
OCCN1CCCN(CCCN2c3ccccc3Sc3ccc(C(F)(F)F)cc32)CC1 | inactive
COc1cc(-c2nn(-c3ccc(NC(=O)c4cc(Cl)cc(Cl)c4)cc3)cc2-c2ccncc2)ccc1Cl | inactive
COc1ccc2cnc(N)c(C#Cc3cc(C(=O)Nc4ccc(CN5CCN(C)CC5)c(C(F)(F)F)c4)cnc3C)c2c1 | inactive
COC(=O)c1cc(=O)nc(N/N=C/c2ccccc2O)s1 | inactive
CC(=O)Nc1ccc(S(=O)(=O)Cl)cc1 | inactive
COc1cc(Cn2ccc3c2-c2oncc2CC3)cc(OC)c1 | inactive

Attribution: PubChem BioAssay (NCI)
